- system-name: Nitric oxide synthase 3 (Homo sapiens) (UniProt P29474)
- Sequence (whole entry): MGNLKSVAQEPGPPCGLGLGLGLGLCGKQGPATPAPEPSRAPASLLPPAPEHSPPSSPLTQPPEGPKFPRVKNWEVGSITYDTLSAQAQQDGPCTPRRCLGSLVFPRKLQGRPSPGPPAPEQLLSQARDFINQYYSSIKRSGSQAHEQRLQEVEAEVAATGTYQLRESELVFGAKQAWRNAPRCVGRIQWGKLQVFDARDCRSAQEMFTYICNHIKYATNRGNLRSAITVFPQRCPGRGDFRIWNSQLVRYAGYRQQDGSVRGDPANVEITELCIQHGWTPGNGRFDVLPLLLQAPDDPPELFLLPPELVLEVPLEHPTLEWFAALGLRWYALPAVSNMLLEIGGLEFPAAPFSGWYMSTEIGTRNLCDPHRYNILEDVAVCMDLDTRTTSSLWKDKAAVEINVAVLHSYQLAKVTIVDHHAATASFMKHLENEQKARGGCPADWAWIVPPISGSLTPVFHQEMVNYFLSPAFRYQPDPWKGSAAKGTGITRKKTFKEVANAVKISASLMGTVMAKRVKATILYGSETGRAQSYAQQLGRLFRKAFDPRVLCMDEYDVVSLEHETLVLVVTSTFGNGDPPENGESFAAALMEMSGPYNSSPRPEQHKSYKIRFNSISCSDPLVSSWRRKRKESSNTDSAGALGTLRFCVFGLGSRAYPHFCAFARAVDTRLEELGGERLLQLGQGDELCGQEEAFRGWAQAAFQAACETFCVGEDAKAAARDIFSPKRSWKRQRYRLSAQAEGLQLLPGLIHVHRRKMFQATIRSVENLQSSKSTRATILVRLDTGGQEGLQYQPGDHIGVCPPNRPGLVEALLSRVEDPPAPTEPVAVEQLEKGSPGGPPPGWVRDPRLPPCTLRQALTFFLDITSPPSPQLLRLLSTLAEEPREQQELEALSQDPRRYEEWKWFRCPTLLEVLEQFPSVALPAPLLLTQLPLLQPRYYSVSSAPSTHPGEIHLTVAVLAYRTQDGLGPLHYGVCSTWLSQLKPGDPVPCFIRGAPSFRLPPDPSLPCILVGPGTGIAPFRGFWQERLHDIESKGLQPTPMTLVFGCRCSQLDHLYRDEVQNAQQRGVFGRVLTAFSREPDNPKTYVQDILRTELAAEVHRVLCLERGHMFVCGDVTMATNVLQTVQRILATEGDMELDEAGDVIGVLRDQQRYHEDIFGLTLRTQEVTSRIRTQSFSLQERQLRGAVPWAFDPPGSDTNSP
- test-name: Inhibition of human eNOS expressed in insect SF9 cells at 10 uM after 1 hr
parameter: inhibition

Solved entries (count: 5):
>>> measured_result("CC(C)CN(Cc1cc(Cl)ccc1C#N)C1CCNCC1")
"20%"
>>> measured_result("CC(C)CN(Cc1cc(Cl)ccc1C#N)[C@@H]1CCCNC1")
"23%"
>>> measured_result("CC(C)CN(Cc1cc(Cl)ccc1C#N)[C@@H]1CCCN(C)C1")
"0%"
>>> measured_result("CC(C)CN(Cc1cc(Cl)ccc1C#N)[C@H]1CCCNC1")
"0%"
>>> measured_result("CC(C)CN(Cc1cc(Cl)ccc1C#N)[C@H]1CCCN(C)C1")
"0%"

// next item, inhibition requested
So what does the record say about inhibition for N#Cc1ccc(C(=O)N2CCC3(CC2)N=C(N)c2c(F)ccc(F)c2N3)cn1 ?
< 15%
